targetOrSystem: HLA-A*11:01
measurementNotes: IEDB peptide-MHC binding, purified MHC/direct/fluorescence; filed as Kd, often an IC50 or EC50 that approximates it; bounds were set here for any values at or beyond the usual limits of such assays
measurementConditions: source organism: Pseudomonas aeruginosa UCBPP-PA14
pKd: −log10 of the molar value.
assayEndpoint: pKd

Provide one value: measured pKd of `ASDDLEHWQ`
≤ 4.70

---

targetOrSystem: HLA-B*46:01
measurementNotes: IEDB peptide-MHC binding, purified MHC/competitive/fluorescence; filed as Kd, often an IC50 or EC50 that approximates it; bounds were set here for any values at or beyond the usual limits of such assays
measurementConditions: source organism: Lechiguanas virus
pKd: −log10 of the molar value.
assayEndpoint: pKd

Provide one value: measured pKd of `HTQAIEGAW`
≤ 4.70
